testDetails: self-splicing fitness, log relative to wild type (ln ratio); higher = more splicing; Tetrahymena group I intron in knt gene, E. coli kanamycin selection, DiMSum; sequences stand for … in CUCUCU…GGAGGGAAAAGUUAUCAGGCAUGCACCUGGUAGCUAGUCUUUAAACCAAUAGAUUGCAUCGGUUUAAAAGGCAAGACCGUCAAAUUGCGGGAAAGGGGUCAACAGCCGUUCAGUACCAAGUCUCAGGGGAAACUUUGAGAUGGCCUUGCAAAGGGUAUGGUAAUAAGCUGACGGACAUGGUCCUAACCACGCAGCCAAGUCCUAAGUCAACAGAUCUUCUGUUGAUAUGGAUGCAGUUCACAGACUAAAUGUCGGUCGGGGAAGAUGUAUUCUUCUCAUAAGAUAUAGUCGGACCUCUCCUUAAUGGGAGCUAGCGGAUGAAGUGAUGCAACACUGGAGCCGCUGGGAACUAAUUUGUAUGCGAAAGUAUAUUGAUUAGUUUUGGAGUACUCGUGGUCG;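 note: selection with 25 µg/mL kanamycin versus none on LB agar overnight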
experimentalContext: 30 °C
I would appreciate it if you labelled entries Satisfied when self-splicing fitness (ln) is -2 or higher, otherwise Not satisfied.

> print(dat)
        residuesequence      classname
1  UCCGAGCAAUAUUACGGUCC  Not satisfied
2  GCACAGCAAUAUUACGUUAA      Satisfied
3  GAGGAGCAAUAUUACGACGU      Satisfied

Check if self-splicing fitness (ln) >= -2 (inclusive). Item: GCAAAGCAAUAUUACGUAUU
Not satisfied

Confirm if self-splicing fitness (ln) reported for the sequence AUCUAGCAAUAUUACGUCAC is -2 or above.
Not satisfied

====

testDetails: self-splicing fitness, log relative to wild type (ln ratio); higher = more splicing; Tetrahymena group I intron in knt gene, E. coli kanamycin selection, DiMSum; sequences stand for … in CUCUCU…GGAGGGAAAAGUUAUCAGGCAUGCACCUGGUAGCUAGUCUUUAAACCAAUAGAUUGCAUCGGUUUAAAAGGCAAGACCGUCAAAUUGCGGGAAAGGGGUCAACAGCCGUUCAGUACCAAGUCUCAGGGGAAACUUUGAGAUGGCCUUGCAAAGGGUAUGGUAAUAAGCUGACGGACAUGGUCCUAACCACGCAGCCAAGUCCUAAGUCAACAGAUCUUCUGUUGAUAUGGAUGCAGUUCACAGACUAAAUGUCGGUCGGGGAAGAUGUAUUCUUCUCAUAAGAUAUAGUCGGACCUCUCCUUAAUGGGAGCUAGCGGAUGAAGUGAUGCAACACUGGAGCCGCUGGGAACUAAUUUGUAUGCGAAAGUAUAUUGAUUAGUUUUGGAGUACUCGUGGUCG
experimentalContext: 30 °C
self-splicing fitness (ln) vs -3: at or above is True, below is False.

> print(dat)
        residuesequence  classname
1  CUAUAGCAAUAUUACGCGAG       True
2  ACCGAGCAAUAUUACGACUG       True
3  UUCCAGCAAUAUUACGGCUU       True

I'd appreciate it if you could say whether GAUUAGCAAUAUUACGCCAA has self-splicing fitness (ln) at least equal to -3.
False

Determine whether measured self-splicing fitness (ln) meets or exceeds -3 for CAAAAGCAAUAUUACGUAUU
False

State whether the measured self-splicing fitness (ln) reaches -3, counting equality as reaching it, for UCCUAGCAAUAUUACGUGAC
False

I'd appreciate it if you could say whether GACGAGCAAUAUUACGAUCA has self-splicing fitness (ln) at least equal to -3.
True

Check this sequence for self-splicing fitness (ln) at or above -3: GCGGAGCAAUAUUACGGAGA
True

Assess whether reported self-splicing fitness (ln) for UUAGAGCAAUAUUACGAGAA sits at -3 or higher.
True

Threshold query (self-splicing fitness (ln) >= -3) on CGGUAGCAAUAUUACGCUCC
True

Is the recorded value of self-splicing fitness (ln) equal to or greater than -3 for this sequence? UAGAAGCAAUAUUACGGGAC
False

Has UAAAAGCAAUAUUACGCGAG a recorded self-splicing fitness (ln) greater than or equal to -3?
True

Has UCAAAGCAAUAUUACGUCUA a recorded self-splicing fitness (ln) greater than or equal to -3?
True

Assess whether reported self-splicing fitness (ln) for GGAUAGCAAUAUUACGCAUU sits at -3 or higher.
False

Check this sequence for self-splicing fitness (ln) at or above -3: GGGAAGCAAUAUUACGUUCU
False

Quick check, self-splicing fitness (ln) >= -3? CCACAGCAAUAUUACGCGAG
True

Determine whether this sequence has self-splicing fitness (ln) no lower than -3: GUAUAGCAAUAUUACGGGUG
False

Is self-splicing fitness (ln) for AAGAAGCAAUAUUACGCCAG at or above -3?
True

State whether the measured self-splicing fitness (ln) reaches -3, counting equality as reaching it, for GCGAAGCAAUAUUACGUCUG
True
